Biological target: Amine oxidase (Homo sapiens, UniProt Q8TBI1)
Sequence (Q8TBI1 whole entry): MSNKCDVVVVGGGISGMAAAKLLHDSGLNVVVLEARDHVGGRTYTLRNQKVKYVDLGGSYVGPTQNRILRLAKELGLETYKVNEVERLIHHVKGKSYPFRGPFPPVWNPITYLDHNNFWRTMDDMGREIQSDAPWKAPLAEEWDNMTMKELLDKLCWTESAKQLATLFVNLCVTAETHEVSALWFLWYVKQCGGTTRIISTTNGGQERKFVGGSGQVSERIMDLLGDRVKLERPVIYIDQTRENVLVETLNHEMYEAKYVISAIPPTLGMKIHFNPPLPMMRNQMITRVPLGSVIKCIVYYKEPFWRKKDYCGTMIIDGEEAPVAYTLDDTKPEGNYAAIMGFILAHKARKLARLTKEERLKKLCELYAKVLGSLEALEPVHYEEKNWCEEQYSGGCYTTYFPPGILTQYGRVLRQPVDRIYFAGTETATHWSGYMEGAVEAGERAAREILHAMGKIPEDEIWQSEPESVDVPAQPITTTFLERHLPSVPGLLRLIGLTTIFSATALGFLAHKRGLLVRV
Observation Type: pIC50
Expect pIC50 as a plain number equal to -log10 of the molar concentration.

O=C1C=CC(=O)c2ccccc21 [1,4-dihydronaphthalene-1,4-dione] = 5.08

*Q* Which measured pIC50 value corresponds to O=C1C(Cl)=C(Cl)C(=O)c2ccccc21 ?
*A* 5.58

*Q* Which measured pIC50 value corresponds to CC1=CC(=O)c2c(O)cccc2C1=O ?
*A* 5.96
